System: Klebsiella pneumoniae
CONDITION_NOTES: Concentration 20 uM; ASSAY_TEST Inhibition of Bacterial Growth; detection method Absorption (OD600); MEDIA CAMHB; plate type 384well; NBS; CORNING #3640; time 18 hr
Description: Antibacterial activity against Klebsiella pneumoniae MDR ATCC 70063 (CO-ADD:GN_003); MIC in CAMBH media using NBS plates, by OD(600)
Entries with a potency or affinity are not part of this list.
REPORTED_ENDPOINT: Inhibition (%)
Give your result in % as a bare value.

Recorded results for 6 molecules are shown here.
>  <MOLECULE>
CCC(C)(C)/N=C(\NC#N)Nc1cccnc1

>  <REPORTED_ENDPOINT>
Inhibition

>  <ASSAY_VALUE>
-0.95

$$$$
>  <MOLECULE>
Cc1cc2c(s1)Nc1ccccc1N=C2N1CCN(C)CC1

>  <REPORTED_ENDPOINT>
Inhibition

>  <ASSAY_VALUE>
5.81

$$$$
>  <MOLECULE>
C[C@H](CS)C(=O)N1CCC[C@H]1C(=O)O

>  <REPORTED_ENDPOINT>
Inhibition

>  <ASSAY_VALUE>
9.36

$$$$
>  <MOLECULE>
O=C(C1CCCCC1)N1CC(=O)N2CCc3ccccc3C2C1 (stereo unspecified)

>  <REPORTED_ENDPOINT>
Inhibition

>  <ASSAY_VALUE>
12.45

$$$$
>  <MOLECULE>
CC(N/C(=N\C#N)Nc1ccncc1)C(C)(C)C.O (stereo unspecified)

>  <REPORTED_ENDPOINT>
Inhibition

>  <ASSAY_VALUE>
0.13

$$$$
>  <MOLECULE>
O=C([O-])c1cc(=O)c2c(OCC(O)COc3cccc4oc(C(=O)[O-])cc(=O)c34)cccc2o1.[Na+].[Na+] [CROMOLYN SODIUM]

>  <REPORTED_ENDPOINT>
Inhibition

>  <ASSAY_VALUE>
6.64

$$$$

(Q) API: value(readout= Inhibition, system= Klebsiella pneumoniae, query= "C[C@H]1C[C@@H]2[C@H]([C@@H](O)C[C@@]3(C)[C@H]2CC[C@]3(O)C(=O)CO)[C@@]2(C)C=CC(=O)C=C12" )
(A) 20.28

(Q) Given the entry CCCOc1ccc(C(=O)OCCN(CC)CC)cc1N.Cl [PROPARACAINE HYDROCHLORIDE] , what Inhibition was observed with Klebsiella pneumoniae?
(A) 1.6

(Q) Record "CC(C)c1nc(CN(C)C(=O)N[C@H](C(=O)N[C@@H](Cc2ccccc2)C[C@H](O)[C@H](Cc2ccccc2)NC(=O)OCc2cncs2)C(C)C)cs1" : what is its Inhibition with Klebsiella pneumoniae?
(A) 14.84

(Q) API: value(readout= Inhibition, system= Klebsiella pneumoniae, query= COc1ccc(CC2c3cc(OC)c(OC)cc3CC[N+]2(C)CCC(=O)OCCCCCOC(=O)CC[N+]2(C)CCc3cc(OC)c(OC)cc3C2Cc2ccc(OC)c(OC)c2)cc1OC.O=S(=O)(O)c1ccccc1 (stereo unspecified) )
(A) 4.87

(Q) For the record "CO[C@H]1O[C@@H]2O[C@@]3(C)CC[C@H]4[C@H](C)CC[C@@H]([C@H]1C)[C@@]24OO3" , what value of Inhibition is listed for Klebsiella pneumoniae?
(A) 9.17

(Q) Param readout = Inhibition; param system = Klebsiella pneumoniae; param query = CCN1CCC[C@H]1CNC(=O)c1cc(S(N)(=O)=O)ccc1OC [LEVOSULPIRIDE] ; response: value
(A) 18.7

(Q) Given the entry CCN(CC)CCOC(=O)c1ccc(N)cc1.Cl [PROCAINE HYDROCHLORIDE] , what Inhibition was observed with Klebsiella pneumoniae?
(A) 12

(Q) Give Inhibition (Klebsiella pneumoniae) of the following molecule: CC(=O)O[C@]1(C(C)=O)CC[C@H]2[C@@H]3C=C(C)C4=CC(=O)CC[C@]4(C)[C@H]3CC[C@@]21C [MEGESTROL ACETATE]
(A) 7.28

(Q) Find the measured Inhibition: item "OCCN1CCN(CCCN2c3ccccc3Sc3ccc(Cl)cc32)CC1" , target or system Klebsiella pneumoniae.
(A) 14.78

(Q) I'm curious: which Inhibition was measured for "Nc1nc(O)c2ncn(CCC(CO)CO)c2n1" tested on Klebsiella pneumoniae?
(A) 17.55
